- SYSTEM_TESTED: UniProtKB P08684
- Sequence (P08684 whole entry): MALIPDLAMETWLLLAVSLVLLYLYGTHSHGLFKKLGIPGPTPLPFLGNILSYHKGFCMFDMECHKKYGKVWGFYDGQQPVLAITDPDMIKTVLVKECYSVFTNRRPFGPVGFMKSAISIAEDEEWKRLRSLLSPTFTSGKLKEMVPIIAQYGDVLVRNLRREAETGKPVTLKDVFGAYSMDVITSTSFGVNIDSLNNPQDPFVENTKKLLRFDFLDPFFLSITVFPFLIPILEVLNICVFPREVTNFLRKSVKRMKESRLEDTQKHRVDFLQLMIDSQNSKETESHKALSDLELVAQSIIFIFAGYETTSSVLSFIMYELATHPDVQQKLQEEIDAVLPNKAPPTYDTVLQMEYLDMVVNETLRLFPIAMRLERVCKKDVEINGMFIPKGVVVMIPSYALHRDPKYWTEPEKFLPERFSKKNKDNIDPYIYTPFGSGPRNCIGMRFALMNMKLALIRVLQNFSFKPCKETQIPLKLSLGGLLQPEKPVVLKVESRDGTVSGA
- ASSAY_METHOD_TEXT: Inhibition of human microsomal CYP3A4 expressed in baculovirus infected insect cells at 10 uM using luciferin-IPA as substrate preincubated with enzyme/substrate mixture for 30 mins followed by further incubation with NADPH for 30 mins by CYP450 luciferase Glo assay relative to control
- Type: ADME
- STATED_CONDITIONS: probe luciferin-IPA
METRIC_NAME: inhibition at 0.5 h, 10 µM (%)
Expressed in %, but write only the number.

Entry under review: COc1ccc2oc(-c3csc4ccccc34)c(OC(=O)N(C)C)c(=O)c2c1 . Reported inhibition at 0.5 h, 10 µM?
47.4

Given the compound COc1ccc2oc(-c3cc(C)cs3)c(O)c(=O)c2c1 , what is its reported inhibition at 0.5 h, 10 µM?
4.51

I would be grateful if you could share the reported inhibition at 0.5 h, 10 µM for COc1ccc2oc(-c3cccc(-c4ccc(OC)c(OC)c4)c3)c(O)c(=O)c2c1 .
52.5

Suppose we examine the compound O=c1c(O)c(-c2ccco2)oc2ccc(O)cc12 ; what inhibition at 0.5 h, 10 µM value has been reported?
7.49

What measured inhibition at 0.5 h, 10 µM goes with Cc1csc(-c2oc3cccc(O)c3c(=O)c2O)c1 ?
6.11

inhibition at 0.5 h, 10 µM lookup needed for Cc1ccsc1-c1oc2cc(O)ccc2c(=O)c1O , thanks.
73.8

----------
- SYSTEM_TESTED: CYP1A2 (Homo sapiens, UniProt P05177)
- Sequence (P05177 whole entry): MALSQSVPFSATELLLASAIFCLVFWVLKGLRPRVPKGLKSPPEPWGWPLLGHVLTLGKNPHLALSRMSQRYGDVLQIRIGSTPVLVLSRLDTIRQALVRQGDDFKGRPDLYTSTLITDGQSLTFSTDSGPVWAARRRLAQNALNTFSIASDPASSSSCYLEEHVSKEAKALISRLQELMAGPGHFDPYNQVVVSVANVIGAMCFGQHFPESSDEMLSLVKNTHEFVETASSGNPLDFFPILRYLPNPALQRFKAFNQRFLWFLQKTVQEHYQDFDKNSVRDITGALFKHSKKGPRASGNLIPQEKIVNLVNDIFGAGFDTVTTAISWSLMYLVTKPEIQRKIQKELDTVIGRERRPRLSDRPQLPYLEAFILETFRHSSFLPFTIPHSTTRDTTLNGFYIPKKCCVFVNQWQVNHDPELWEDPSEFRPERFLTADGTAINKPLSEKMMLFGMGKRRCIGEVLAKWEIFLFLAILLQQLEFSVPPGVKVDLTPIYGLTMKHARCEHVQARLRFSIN
- ASSAY_METHOD_TEXT: Inhibition of human microsomal CYP1A2 expressed in baculovirus infected insect cells at 10 uM using luciferin-1A2 as substrate preincubated with enzyme/substrate mixture for 30 mins followed by further incubation with NADPH for 30 mins by CYP450 luciferase Glo assay relative to control
- Format: ADME
- STATED_CONDITIONS: probe luciferin-1A2
Exercise: state measured inhibition at 0.5 h, 10 µM for each of the compounds provided.
Give the number; % is assumed, so skip it.

Fill in the blank: the reported inhibition at 0.5 h, 10 µM of Cc1csc(-c2oc3ccc(O)cc3c(=O)c2O)c1 is ____.
96.1

// lookup inhibition at 0.5 h, 10 µM for O=c1c(O)c(-c2cccc(-c3ccc(O)c(O)c3)c2)oc2ccc(O)cc12
51.9

Query: inhibition at 0.5 h, 10 µM; subject: O=c1c(O)c(-c2c[nH]c3ccccc23)oc2ccc(O)cc12
101

Consider the compound COc1ccc2c(=O)c(O)c(-c3cc(C)cs3)oc2c1 and give its measured inhibition at 0.5 h, 10 µM.
103

Name the reported inhibition at 0.5 h, 10 µM value associated with the compound O=c1c(O)c(-c2csc3ccccc23)oc2ccccc12
97.7

Recorded inhibition at 0.5 h, 10 µM for COc1ccc2c(=O)c(O)c(-c3csc4ccccc34)oc2c1 , please?
90

For the compound COc1ccc2oc(-c3csc4ccccc34)c(OC(=O)C(C)(C)C)c(=O)c2c1 , what inhibition at 0.5 h, 10 µM is on record?
51.6

Consider the compound Cc1csc(-c2oc3cccc(O)c3c(=O)c2O)c1 and give its measured inhibition at 0.5 h, 10 µM.
106

What does the record list as inhibition at 0.5 h, 10 µM for COc1ccc2c(=O)c(O)c(-c3ccc4c(c3)OCO4)oc2c1 ?
101

Endpoint output: inhibition at 0.5 h, 10 µM of Cc1ccc2oc(-c3csc4ccccc34)c(O)c(=O)c2c1 . Value?
81.3
